Reference source: the supplement of paper PMC6555819

Reported PBM binding z-score values for a set of sequences
Test system: RXRa homodimer (NR concentration 180 nM)
test protocol: PBM binding z-score (relative to random genomic background probes); higher = stronger binding; sequences stand for … in GC…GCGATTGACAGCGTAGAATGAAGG

AATACAGGGTCATCGTAGGCCAGAGTACGCACAG	6.83

Now, please, on to the next sequence.
# input Give a short answer stating reported PBM binding z-score for "TAGCCTCGGTCATGGGCCAGTATACCACGCGAAC" .
# output 0.378

----------
Test system: RXRa homodimer (NR concentration 180 nM)
test protocol: PBM binding z-score (relative to random genomic background probes); higher = stronger binding; sequences stand for … in GC…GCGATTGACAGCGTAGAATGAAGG
So basically every entry gets a class from its PBM binding z-score, ranges being b0: < 1; b1: ≥ 1 and < 4; b2: ≥ 4

Some entries whose results are on file:
CCTACTGGGCCAAAAAGGTGATTGATGCCGATAA	b0
CGAACTAGGTCATTTACAGGACAGTGAATAGTAA	b1
CCTACTGGGACACGAAAGGTCATTGATTCAGTGA	b2
ATCGAAAGGTCGAAGGTGAATATACCCACCCGAA	b2
CGAAATAGGTCAGAACAGGACAGTGAAGGATGAT	b1
CCTACTGGGCCACGAAAGGTCATCGATTCAGTGA	b2
TTACCAAGGTGAGCTAAGGTCGTTGATCCAACTC	b1
CCTTACGGGTCACTCCAGGTTTTAGCATCGGAGT	b2

Moving on to the next sequence.
# input Which PBM binding z-score category applies to "TATACAGGGTCAAAGGCAAGAGTACGAATGTCGA" here?
# output b2

----------
Test system: VDR:RXRa (NR concentration 270 nM, RXRa partner concentration 90 nM)
test protocol: PBM binding z-score (relative to random genomic background probes); higher = stronger binding; sequences stand for … in GC…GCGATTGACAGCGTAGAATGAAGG
So basically every entry gets a class from its PBM binding z-score, ranges being bottom bin = under 0.6, middle bin = from 0.6 up to 2, top bin = 2 and over

Some entries whose results are on file:
TTACCAAGGTGAGCTGAGGCCGTTGATCCAACTC	bottom bin
GCTGCTAGGTCAACTGATGGTCAGGTAAAGCTCG	middle bin
ATCTCTAGATAACAAGTTCAGTGAAAGAGAGGAC	middle bin
TCTTGTAGATCAACATGAGGTTAAGAAAGATCGA	middle bin
CCAGACAGGTTAAAGGTAACTCAGTCTGGTACGC	middle bin
ATCTCTAGGTAACCAAGTTCAGTGTATGCCGAAC	top bin
AATACAGGGTCACTAGGCCAGACTAGGTACGAAT	top bin
ATCTATAGGTAAAGTTCAGTGAAAGATCGATAGA	middle bin

# input Which PBM binding z-score category applies to "TCTATTAGTTGATTAGGGCAACAGAAACAGCGGA" here?
# output bottom bin

# input Which PBM binding z-score category applies to "GCGACTGGGGAATCAGCAGGTTACCATAACTTAA" here?
# output bottom bin

# input Which PBM binding z-score category applies to "AGTCAAAGCTCATCTAGGTAACGTAAGATATGCT" here?
# output bottom bin

----------
Test system: RXRa DBDmut IVT, anti-RXR (DBD mutation: RXRa K156A/R161A, NR concentration 90 nM)
test protocol: PBM binding z-score (relative to random genomic background probes); higher = stronger binding; sequences stand for … in GC…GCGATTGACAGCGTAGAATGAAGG
measurement kind: PBM binding z-score
Please state the value as a number alone, without comment.

Here are 6 sequences together with their reported answers.
CCGACTGGGGCAGAAAGGTTACCATGCCATCCGG	-1.07
TCTGCTAGATCAGTTGGTCAGCTAACGAGCTGCC	-0.256
AATACAGGTTCACTAGGCCAGAGTAGGTACGAAT	4.16
ACTCGCAGGACAAAGGTCAGAGCTACGCCAGTGA	0.845
ATCTCTAGGTAAGACTGAGTTCAGTGAAGAACGC	1.38
AGAACAAGGGCACGCTGAGTTGATAGCAGAGTAG	1.22

Now, please, on to the next sequence.
# input Give a short answer stating reported PBM binding z-score for "CCTCGGAGGACAGAAGGTCCGAGCTGTCCGCTTT" .
# output 0.0399
